Hello, the source for this data is PubChem BioAssay (NCI), in case you need it.

System: K-562 leukemia
Assay: NCI tumour cell line growth inhibition, 48 h; in the data active = GI50 below about 0.43 µM; inactive = the rest
Returns: one label drawn from active, inactive

Field: example entries. Status: answers known.
{"COMPOUND": "CCCN1C(=O)/C(=c2\\sc3n(c2=O)C2C(NN=3)N(CC)C(=O)N2CC)c2ccccc21 (centres undefined)", "CATEGORY_LABEL": "active"}
{"COMPOUND": "Cc1cc(N2CCCCC2)nc(N(CCNc2ccnc3cc(Cl)ccc23)Cc2ccco2)n1", "CATEGORY_LABEL": "inactive"}
{"COMPOUND": "NC(=O)[C@H]1CCN(c2ncnc(N)c2F)C[C@@H]1N1CCC[C@@H](Nc2cc(Cl)cc(C(F)(F)F)c2)C1=O", "CATEGORY_LABEL": "inactive"}
{"COMPOUND": "CC(=O)[O][Pb]([O]C(C)=O)([c]1ccccc1)[c]1ccccc1", "CATEGORY_LABEL": "inactive"}
{"COMPOUND": "COc1ccc2c(c1)CCC1C2CCC2(C)C1CCC2(O)CNC(=O)CCCCC1CCSS1 (centres undefined)", "CATEGORY_LABEL": "inactive"}

Incoming: Please state the recorded outcome for this compound: CCN=C1C=CC(=C(c2ccc(N(C)C)cc2)c2ccc(N(C)C)cc2)c2ccccc21
Outgoing: active

Incoming: I'd appreciate the recorded outcome for O=C(CCl)c1ccc([N+](=O)[O-])o1 from this test.
Outgoing: inactive

Incoming: Tell me the assay call for CCOC(=O)c1c2c(n(CC(C)C)c1C)-c1nc[nH]c1C(=O)C2=O please.
Outgoing: inactive

Incoming: I would be grateful if you could indicate the recorded call for CC[C@](C)(O)C(=O)O[C@H]1C(=O)O[C@@H]2C[C@H]3C(C)=CC(=O)[C@@H](O)[C@]3(C)[C@H]3[C@@]4(O)OC[C@]32[C@@H]1[C@@H](C)[C@H]4O .
Outgoing: active

----------
Tested on: HT29 colon
Test: NCI tumour cell line growth inhibition, 48 h
Recorded TGI by entry

{"MOLECULE": "COc1cc(Cn2cc3c(c2)-c2oncc2CC3)cc(OC)c1OC", "TGI": "> 100 µM"}
{"MOLECULE": "O=C(O)[C@@H]1C2CC([C@@H]1C(=O)O)[C@H](N1C(=O)CCC1=O)[C@@H]2Br (some centres not stated)", "TGI": "> 100 µM"}
{"MOLECULE": "CCOC(=O)c1cc(Sc2ccc(N)c(C(=O)OCC)c2)ccc1N", "TGI": "> 100 µM"}

Incoming: What value of TGI has been reported for the following molecule? CCOC(=O)/C(N=Nc1ccc(-n2c(C)nc3ccccc3c2=O)cc1)=C(/C)O
Outgoing: > 100 µM

Incoming: For the molecule shown here, COc1ccc(C(=O)/C=C/c2ccc(Cl)cc2)cc1S(=O)(=O)Nc1c(N)nc(SC)[nH]c1=O , give the reported TGI.
Outgoing: 7.93 µM

Incoming: Quick check: TGI of COC(=O)N1C[C@@]2(C=CC3(CC2)OCCO3)c2ccccc21 ?
Outgoing: > 100 µM

Incoming: Can you look up the measured TGI of CC1=C(C(=O)OCc2ccccc2)C(c2ccc3c(c2)OCO3)n2c(nc3ccccc32)N1 (configuration not stated) for me?
Outgoing: > 100 µM

Incoming: What value of TGI has been recorded for this entry: N#CC(C#N)=Cc1ccc(-c2ccc(-c3nc4ccccc4s3)cc2)o1
Outgoing: > 100 µM

Incoming: Could you tell me which TGI is on file for O=C(O)CS(=O)(=O)C(c1ccccc1)c1ccccc1 ?
Outgoing: > 100 µM

Incoming: TGI lookup needed for CC(C)OP(=O)(OC(C)C)C(C(C)C)N(C)/C(N)=N\C1=NC(C(F)(F)F)(C(F)(F)F)N=C(C(C(F)(F)F)C(F)(F)F)O1 (configuration not stated) , thanks.
Outgoing: 6.98 µM

Incoming: Dear colleague, I am looking for the recorded TGI of the following molecule: C[C@]12CC[C@H]3[C@@H](CCC4=CC(=O)CC[C@@H]43)[C@@H]1CC[C@@H]2OC(=O)N(CCCl)N=O
Outgoing: 13.7 µM

Incoming: Look up TGI: Cc1ccc2[nH]c(C(=O)NN3C(=O)CSC34CCCCC4C)c(-c3ccccc3)c2c1 (configuration not stated)
Outgoing: 36.9 µM

----------
Test system: SF-268 CNS
Assay: NCI tumour cell line growth inhibition, 48 h
RECORDED_ENDPOINT: GI50

Below: 4 molecules and their reported GI50.
{"MOLECULE": "c1ccc2nc(Cn3c[n+](Cc4ccc5ccccc5n4)c4ccccc43)ccc2c1", "ASSAYED_TARGET": "SF-268 CNS", "GI50": "2.97 µM"}
{"MOLECULE": "N#CC(C#N)=Cc1ccc(-c2ccc(-c3nc4ccccc4s3)cc2)o1", "ASSAYED_TARGET": "SF-268 CNS", "GI50": "27.6 µM"}
{"MOLECULE": "CCn1c(-c2nonc2N)nc2cncc(C(=O)N3CCNCC3)c21", "ASSAYED_TARGET": "SF-268 CNS", "GI50": "> 25 µM"}
{"MOLECULE": "CCN(CC)c1ccc(/C=C/c2cc(C)c3ccccc3n2)cc1", "ASSAYED_TARGET": "SF-268 CNS", "GI50": "5.46 µM"}

Incoming: Entry under review: CCN(CC)CCOc1ccc(C(=C(C)c2ccc(Cl)cc2)c2ccc(OCCN(CC)CC)cc2)cc1 . Reported GI50?
Outgoing: 0.659 µM

----------
Test system: HS 578T breast
Test: NCI tumour cell line growth inhibition, 48 h; in the data active means GI50 below about 0.43 µM; inactive means the rest
Entry note: the call must match one of yes (1) = active, no (0) = inactive

{"COMPOUND": "COc1cc2nc(Cl)nc(Nc3cccc(C(=O)/C=C/c4ccccc4)c3)c2cc1OC", "CATEGORY_LABEL": "no (0)"}

Incoming: How was CC(C)(O)c1ccc(N2CCN(c3nnc(Cc4ccccc4)c4ccccc34)CC2)nc1 classified in this test?
Outgoing: no (0)

Incoming: Answer briefly: the call reported for COc1ccc2c(c1)CCC1C2CCC2(C)C1CCC2(O)CNC(=O)CCCCC1CCSS1 (stereo unspecified) in this assay.
Outgoing: no (0)

Incoming: Name the outcome recorded for CC12CCC(=O)C(O1)C1C(=O)c3cc4ccccc4cc3C(=O)C12 (stereo unspecified) in the assay.
Outgoing: no (0)

Incoming: Kindly provide the recorded test outcome for the following compound: CCN(CC)c1ccc(/C=C/c2cc(C)c3ccccc3n2)cc1
Outgoing: no (0)

Incoming: Answer briefly: the call reported for O=c1cc(CNc2cc(F)cc(F)c2)c2ccc(I)cc2[nH]1 in this assay.
Outgoing: yes (1)

----------
Items are presented alongside their recorded TGI.
System: OVCAR-5 ovarian
Assay: NCI tumour cell line growth inhibition, 48 h

{"ITEM_SMILES": "CCOC(=O)/C(O)=C(/C=N\\C(=S)Nc1ccccc1Cl)C(=O)OCC", "TGI": "> 100 µM"}
{"ITEM_SMILES": "COc1cc(Br)c(OC)c2c(OC)cc(C)cc12", "TGI": "> 100 µM"}

Please turn your attention to the following entry.
Incoming: # TGI lookup, item O=C(c1ccc(Cl)cc1Cl)N(C(=O)N1CCC(c2ccccc2)CC1)c1ccccc1
Outgoing: > 100 µM

----------
System: U251 CNS
The following compounds are listed with their measured GI50 values.

Below: 3 compounds and their reported GI50.
{"ITEM_SMILES": "CCOC(=O)Cc1c[nH]c(=S)[nH]c1=O", "GI50": "> 100 µM"}
{"ITEM_SMILES": "COc1cc2nc(Cl)nc(Nc3cccc(C(=O)/C=C/c4ccccc4)c3)c2cc1OC", "GI50": "2.97 µM"}
{"ITEM_SMILES": "N#Cc1ncc(/N=C/c2ccc(N(CCCl)CCCl)cc2)s1", "GI50": "18.6 µM"}

Now examine the next entry.
Incoming: # value lookup — system U251 CNS, readout GI50, item CC(=O)[O][Pb]([O]C(C)=O)([c]1ccccc1)[c]1ccccc1
Outgoing: 4.69 µM

----------
Tested on: NCI-H23 lung
Assay: NCI tumour cell line growth inhibition, 48 h
RECORDED_ENDPOINT: TGI

The examples below pair each entry with its known result.
{"MOLECULE": "CC12CCC(=O)C(O1)C1C(=O)c3cc4ccccc4cc3C(=O)C12 (stereo not given)", "ASSAYED_TARGET": "NCI-H23 lung", "MEASUREMENT": "31.6 µM"}
{"MOLECULE": "COc1ccccc1C1CC(=O)CC(c2ccccc2OC)C12C(=O)NC(=S)NC2=O (stereo not given)", "ASSAYED_TARGET": "NCI-H23 lung", "MEASUREMENT": "> 100 µM"}
{"MOLECULE": "C=C1C(=O)C([Si](C)(C)C)=C2C=C(C)C3(CC3)C12C (stereo not given)", "ASSAYED_TARGET": "NCI-H23 lung", "MEASUREMENT": "> 100 µM"}
{"MOLECULE": "NCCCNCCCNCCCN", "ASSAYED_TARGET": "NCI-H23 lung", "MEASUREMENT": "> 100 µM"}
{"MOLECULE": "O=C1CC(=O)NC(=NN2C(=O)CSC2c2ccc(Cl)c(Cl)c2)N1 (stereo not given)", "ASSAYED_TARGET": "NCI-H23 lung", "MEASUREMENT": "> 100 µM"}

Incoming: # query: TGI of entry C=C1C(=O)O[C@@H]2C1CC(=O)C(C)CC/C=C(\C)CCC[C@H](C)[C@H]2OC(C)=O (stereo not given in full)
Outgoing: 29.5 µM

Incoming: Request the reported TGI associated with O=C(NCCCCCCNC(=O)c1cccc2ccccc12)c1cccc2ccccc12
Outgoing: > 100 µM

Incoming: Which TGI value is on record for Oc1ccccc1/C=N/Nc1nnc2c3ccccc3c3ccccc3c2n1 ?
Outgoing: > 100 µM

Incoming: I am curious: what TGI value has been reported for CN1CCc2c1nc(-c1ccccc1)c1c2N(C)CC1 ?
Outgoing: > 100 µM

Incoming: Given COc1cccc(OC(=O)c2ccccc2Nc2ccnc(C(F)(F)F)c2)c1 , state its recorded TGI.
Outgoing: 6.73 µM

Incoming: # TGI lookup, item Cc1nn2c(=O)c([N+](=O)[O-])c(/C=C/c3ccccc3)nc2s1
Outgoing: > 100 µM

Incoming: Bench note: what TGI did Cc1c2ccncc2cc2c1sc1ccncc12 show?
Outgoing: 10.7 µM

Incoming: Name the recorded TGI for N#Cc1ncc(/N=C/c2ccc(N(CCCl)CCCl)cc2)s1 .
Outgoing: > 100 µM

Incoming: Given CC12CCC=CC1CCC1C2CCC2(C)C(c3ccc(=O)oc3)CCC12O (stereo not given) , state its recorded TGI.
Outgoing: 0.302 µM

Incoming: For the molecule CN(C)CCCNC(=O)c1cc(NC(=O)CCNS(=O)(=O)c2ccc3c(c2)C(=O)c2ccccc2C3=O)cn1C , what TGI is on record?
Outgoing: > 100 µM

Incoming: So what does the record say about TGI for CC(C)OP(=O)(OC(C)C)C(C(C)C)N(C)/C(N)=N\C1=NC(C(F)(F)F)(C(F)(F)F)N=C(C(C(F)(F)F)C(F)(F)F)O1 (stereo not given) ?
Outgoing: 14.6 µM

Incoming: Given the entry CC[C@H](Nc1nc(N)nc(C)c1C#N)c1nc2cccc(CN(C)c3ncc(C(=O)NO)cn3)c2c(=O)n1-c1ccccc1 , report its measured TGI.
Outgoing: 5.32 µM

Incoming: # input molecule: O=C(O)C1CC2C3CCC2C1C3=O (stereo not given) ; wanted: its TGI
Outgoing: > 100 µM

Incoming: I have this molecule here, CC1=NC(=O)C(C)(c2ccccc2)N1CCc1ccccc1 (stereo not given) , and I need its recorded TGI.
Outgoing: > 100 µM
